Target: T1, LILRB2 (antigen in solution, Octet RED 96) (UniProt Q8N423 22-460, limits assumed)
T1 construct: also called LILRB2 solution
Assay: BLI (Octet RED 96), antibody on protein A biosensor, LILRB2 in solution
Experimental: Affinity measurement of blocking antibodies. Affinities of the 5 blocking antibodies were measured on Octet RED 96 system.
koff for assorted binders
Reported Endpoint: koff (s⁻¹)

[
  {
    "Binder": "B2-7 (antibody, V domains shown, also called B2-7_HC; B2-7_LC) VH: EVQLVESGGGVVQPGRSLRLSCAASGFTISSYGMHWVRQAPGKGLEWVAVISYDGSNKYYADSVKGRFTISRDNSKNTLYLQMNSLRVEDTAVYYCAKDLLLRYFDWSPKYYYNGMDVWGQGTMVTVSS VL: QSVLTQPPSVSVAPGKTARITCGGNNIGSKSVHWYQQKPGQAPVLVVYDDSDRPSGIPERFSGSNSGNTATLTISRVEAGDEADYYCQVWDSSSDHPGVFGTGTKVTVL",
    "Numeric Result": 0.00305
  },
  {
    "Binder": "B2-17 (antibody, V domains shown, also called B2-17_HC; B2-17_LC) VH: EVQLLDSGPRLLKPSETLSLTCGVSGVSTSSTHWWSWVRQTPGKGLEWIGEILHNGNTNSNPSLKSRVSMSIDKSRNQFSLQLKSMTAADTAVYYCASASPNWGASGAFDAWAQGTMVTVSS VL: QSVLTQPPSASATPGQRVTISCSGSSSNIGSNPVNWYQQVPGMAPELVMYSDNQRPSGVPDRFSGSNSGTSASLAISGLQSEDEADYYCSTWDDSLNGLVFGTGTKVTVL",
    "Numeric Result": 0.0121
  },
  {
    "Binder": "HCB2-10 (antibody, V domains shown, also called HCB2-10_HC; HCB2-10_LC) VH: QVQLVESGGGLVQPGGSLRLSCAASGFTFSNYAMSWVRQAPGKGLEWVSAISGSSISTYYADSVKGRFTISRDNSKNTLYLQMNSLRAEDTAVYYCASSGFGSFDYWGQGTLVTVSS VL: QPPSVSAAPRQRVTISCSGSSSNIGDNSVNWYQQLPGKAPKLLIYLDDLLPSGVSGRFSGSKSGTSASLVISGLQSEDEADYYCATWDDSLNGVVFGGGTKVTVL",
    "Numeric Result": 0.0061
  },
  {
    "Binder": "B2-15 (antibody, V domains shown, also called B-15; B2-15_HC) VH: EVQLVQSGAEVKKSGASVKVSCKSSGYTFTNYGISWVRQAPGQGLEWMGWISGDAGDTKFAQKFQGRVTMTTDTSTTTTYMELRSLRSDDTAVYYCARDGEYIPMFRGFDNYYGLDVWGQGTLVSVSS VL: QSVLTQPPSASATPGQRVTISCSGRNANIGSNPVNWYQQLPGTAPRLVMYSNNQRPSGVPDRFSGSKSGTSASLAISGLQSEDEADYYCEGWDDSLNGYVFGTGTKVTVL",
    "Numeric Result": 0.00565
  }
]

These measurements were taken from patent US20230068663A1.
